# procedure_text: logP determination by HPLC on a reversed-phase column (C18), EEC Directive 79/831 Annex V.A8
# Assay type: physicochemical
# test_context: HPLC-MS, reversed-phase column (C18)
Binary classification by log P, with 4 as an inclusive lower bound for class 1; all other cases are class 0.

{"compound": "NC(=S)C1(NC(=O)c2cc(-c3cnn(-c4c(Cl)cc(C(F)(C(F)(F)F)C(F)(F)F)cc4C(F)(F)F)c3)cnc2Cl)CC1 [I-T3-159]", "classification": "class 0"}
{"compound": "O=C(NC1CC1)c1cc(-c2cnn(-c3c(Cl)cc(C(F)(C(F)(F)F)C(F)(F)F)cc3Cl)c2)cnc1N1CCCC1 [I-T3-135]", "classification": "class 1"}
{"compound": "N#CC1(NC(=O)c2cc(-c3cnn(-c4c(Cl)cc(C(F)(F)F)cc4Cl)c3)cnc2Cl)CC1 [I-T3-95]", "classification": "class 0"}
{"compound": "Cc1cc(C(F)(C(F)(F)F)C(F)(F)F)cc(C)c1-n1cc(-c2cnc(Cl)c(C(=O)N(C)C3CC3)c2)cn1 [I-T3-101]", "classification": "class 1"}
{"compound": "CN(C(=O)c1cc(-c2cnn(-c3c(Cl)cc(C(F)(C(F)(F)F)C(F)(F)F)cc3Cl)c2)cnc1Cl)C1CC1 [I-T3-100]", "classification": "class 1"}
{"compound": "Cc1ncc(-c2cnn(-c3c(Cl)cc(C(F)(C(F)(F)F)C(F)(F)F)cc3C(F)(F)F)c2)cc1C(=O)NC1(C#N)CC1 [I-T3-125]", "classification": "class 0"}
